Reported IC50 values for the following compounds.
- target: Insulin-like growth factor 1 receptor (Homo sapiens, UniProt P08069)
- Sequence (P08069 31-736 limits assumed): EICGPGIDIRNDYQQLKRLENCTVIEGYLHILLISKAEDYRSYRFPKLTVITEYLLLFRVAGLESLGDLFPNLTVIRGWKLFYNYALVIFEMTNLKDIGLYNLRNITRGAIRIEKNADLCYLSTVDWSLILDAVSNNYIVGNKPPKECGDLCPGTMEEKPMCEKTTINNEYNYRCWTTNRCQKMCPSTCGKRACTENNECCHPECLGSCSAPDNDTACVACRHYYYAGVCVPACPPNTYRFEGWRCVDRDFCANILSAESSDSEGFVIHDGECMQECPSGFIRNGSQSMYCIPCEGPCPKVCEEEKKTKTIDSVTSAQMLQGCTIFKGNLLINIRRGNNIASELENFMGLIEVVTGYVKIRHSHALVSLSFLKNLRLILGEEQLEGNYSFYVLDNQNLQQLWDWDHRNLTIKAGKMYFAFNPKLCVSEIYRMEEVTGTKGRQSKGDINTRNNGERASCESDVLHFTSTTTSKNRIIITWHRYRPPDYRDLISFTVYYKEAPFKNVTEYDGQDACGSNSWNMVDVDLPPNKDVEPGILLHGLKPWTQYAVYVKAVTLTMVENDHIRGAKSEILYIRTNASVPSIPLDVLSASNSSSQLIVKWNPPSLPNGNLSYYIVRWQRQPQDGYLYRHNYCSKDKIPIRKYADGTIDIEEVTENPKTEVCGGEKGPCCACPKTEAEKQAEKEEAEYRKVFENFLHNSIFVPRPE
- Sequence (P08069 741-1367 limits assumed): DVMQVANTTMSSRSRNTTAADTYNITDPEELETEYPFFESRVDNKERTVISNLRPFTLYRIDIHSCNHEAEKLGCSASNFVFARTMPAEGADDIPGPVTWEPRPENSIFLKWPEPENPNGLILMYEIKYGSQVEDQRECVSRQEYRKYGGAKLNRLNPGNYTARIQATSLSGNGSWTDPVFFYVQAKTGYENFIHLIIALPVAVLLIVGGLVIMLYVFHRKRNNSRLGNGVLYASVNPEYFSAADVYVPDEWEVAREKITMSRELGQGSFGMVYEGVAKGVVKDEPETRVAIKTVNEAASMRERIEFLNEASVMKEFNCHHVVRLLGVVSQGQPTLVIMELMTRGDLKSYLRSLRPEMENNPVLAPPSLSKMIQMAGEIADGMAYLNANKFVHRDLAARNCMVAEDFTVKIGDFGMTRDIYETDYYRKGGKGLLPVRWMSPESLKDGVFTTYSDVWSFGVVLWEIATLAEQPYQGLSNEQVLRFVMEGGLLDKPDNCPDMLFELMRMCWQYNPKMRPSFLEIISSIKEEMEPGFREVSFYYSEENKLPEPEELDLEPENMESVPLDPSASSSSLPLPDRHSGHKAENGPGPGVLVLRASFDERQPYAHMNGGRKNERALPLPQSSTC
- procedureText: Inhibition of human recombinant N-terminal His6-tagged IGF-1R using fluorescence substrate after 80 mins by caliper off-chip incubation mobility shift assay

Solved entries:
>  <structure>
c1cc2c(-c3ccnc4[nH]ccc34)c[nH]c2cn1

>  <target>
Insulin-like growth factor 1 receptor (Homo sapiens, UniProt P08069)

>  <result>
7.99 µM

$$$$
>  <structure>
COc1cc(N2CCN(C(C)=O)CC2)ccc1Nc1cc(-c2c[nH]c3cnccc23)ncn1

>  <target>
Insulin-like growth factor 1 receptor (Homo sapiens, UniProt P08069)

>  <result>
40.5 µM

$$$$
>  <structure>
COc1cc(N2CCN(C(C)=O)CC2)ccc1Nc1cc(-c2cn(C)c3cnccc23)ncn1

>  <target>
Insulin-like growth factor 1 receptor (Homo sapiens, UniProt P08069)

>  <result>
> 100 µM

$$$$
>  <structure>
COc1cc(N2CCN(C)CC2)ccc1Nc1nccc(-c2cn(C)c3cnccc23)n1

>  <target>
Insulin-like growth factor 1 receptor (Homo sapiens, UniProt P08069)

>  <result>
0.779 µM

$$$$

Memo: COc1cc(N2CCN(C)CC2)ccc1Nc1cc(-c2c[nH]c3cnccc23)ncn1 , reported IC50: 34.1 µM

----------
- procedureText: Intrinsic clearance in Wistar Han rat hepatocytes assessed per 10^6 cells
- Type: ADME, cell-based, Hepatocyte
- assaySetup: read-out: CLH
Each entry gets not satisfied if its hepatocyte CLint stays under 10 µL/min/1e6 cells, and satisfied if its hepatocyte CLint is 10 µL/min/1e6 cells or above.

Please review the following examples before continuing.
>  <structure>
COc1cc(N2CCN(C)CC2)ccc1Nc1cc(-c2c[nH]c3cnccc23)ncn1

>  <assignedClass>
satisfied

$$$$
>  <structure>
COc1cc(N2CCN(C(C)=O)CC2)ccc1Nc1cc(-c2c[nH]c3cnccc23)ncn1

>  <assignedClass>
not satisfied

$$$$
>  <structure>
COc1cc(N2CCN(C)CC2)ccc1Nc1nccc(-c2cn(C)c3cnccc23)n1

>  <assignedClass>
satisfied

$$$$
>  <structure>
Cc1nccc2c(-c3ccnc(-c4ccc(S(C)(=O)=O)cc4)n3)c[nH]c12

>  <assignedClass>
not satisfied

$$$$
>  <structure>
O=C(NC1CCCC1)c1ccc(-c2nccc(-c3c[nH]c4cnccc34)n2)cc1

>  <assignedClass>
satisfied

$$$$
>  <structure>
COc1cc(N2CCN(C)CC2)ccc1Nc1nccc(-c2c[nH]c3cnc(C)cc23)n1

>  <assignedClass>
not satisfied

$$$$

Input line: # bool: hepatocyte CLint of COc1cc(N2CCN(C)CC2)ccc1Nc1nccc(-c2c[nH]c3cnccc23)n1 >= 10 µL/min/1e6 cells
Output line: satisfied

Input line: Entry COc1cc(N2CCN(C)CC2)ccc1Nc1nccc(-c2c[nH]c3c(C)nccc23)n1 : is its hepatocyte CLint no less than 10 µL/min/1e6 cells?
Output line: not satisfied

FYI, the data here is from ChEMBL document CHEMBL3421608.
